Where these numbers come from: paper PMC11493442

# test.system: P-gp (Homo sapiens)
# Construct: WuXi Apptec Co., Ltd. (contract laboratory)
# Sequence (P08183 whole entry): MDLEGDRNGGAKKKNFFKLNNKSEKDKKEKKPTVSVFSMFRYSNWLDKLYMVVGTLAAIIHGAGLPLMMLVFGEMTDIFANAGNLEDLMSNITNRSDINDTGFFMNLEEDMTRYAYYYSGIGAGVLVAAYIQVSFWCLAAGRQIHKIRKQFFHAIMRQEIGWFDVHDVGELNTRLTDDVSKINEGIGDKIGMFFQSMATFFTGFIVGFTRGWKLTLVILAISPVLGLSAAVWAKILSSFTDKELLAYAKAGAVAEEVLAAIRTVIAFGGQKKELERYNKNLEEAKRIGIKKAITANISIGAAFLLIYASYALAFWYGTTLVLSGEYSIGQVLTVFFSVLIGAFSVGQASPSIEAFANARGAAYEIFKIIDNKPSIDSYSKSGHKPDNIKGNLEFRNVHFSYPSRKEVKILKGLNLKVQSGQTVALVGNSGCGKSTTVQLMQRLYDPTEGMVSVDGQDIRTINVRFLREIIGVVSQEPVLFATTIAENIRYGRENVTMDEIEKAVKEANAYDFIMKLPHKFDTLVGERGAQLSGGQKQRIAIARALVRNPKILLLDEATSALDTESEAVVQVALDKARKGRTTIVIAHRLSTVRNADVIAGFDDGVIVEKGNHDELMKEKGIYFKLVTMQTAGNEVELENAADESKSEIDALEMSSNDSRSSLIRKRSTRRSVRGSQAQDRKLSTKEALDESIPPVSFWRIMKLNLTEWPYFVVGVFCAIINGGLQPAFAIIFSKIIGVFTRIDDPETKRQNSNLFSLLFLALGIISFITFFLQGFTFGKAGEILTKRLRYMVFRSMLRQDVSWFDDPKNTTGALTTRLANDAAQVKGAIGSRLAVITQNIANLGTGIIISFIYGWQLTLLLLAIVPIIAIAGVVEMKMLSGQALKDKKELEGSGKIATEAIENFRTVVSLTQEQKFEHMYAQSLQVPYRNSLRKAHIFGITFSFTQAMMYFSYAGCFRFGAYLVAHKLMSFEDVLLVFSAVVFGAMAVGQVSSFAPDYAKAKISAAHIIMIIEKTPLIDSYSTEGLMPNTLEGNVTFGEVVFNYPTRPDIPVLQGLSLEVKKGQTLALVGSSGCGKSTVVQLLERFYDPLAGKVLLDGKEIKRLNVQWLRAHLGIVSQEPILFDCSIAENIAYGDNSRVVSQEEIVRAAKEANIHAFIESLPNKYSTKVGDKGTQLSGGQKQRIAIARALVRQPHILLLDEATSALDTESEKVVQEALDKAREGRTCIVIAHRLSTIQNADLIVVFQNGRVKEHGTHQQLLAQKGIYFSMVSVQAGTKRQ
# assay.procedure: P-gp efflux ratio
# Format: in vitro ADME
# stated.conditions: not told

compound	efflux ratio
O=C(NC1CC1CCCCc1ccccc1)C1CCC(O)CC1 (racemic) [Compound 8015]	0.99 to 1.1

---

# assay.procedure: Plasma protein binding, mouse
# Assay type: in vitro ADME
# stated.conditions: read-out: Plasma protein % bound (converted)

molecule	fraction unbound
O=C(NC1CC1CCCCc1ccccc1)C1CCC(O)CC1 (racemic) [Compound 8015]	0.032

---

# assay.procedure: Enterohepatic recirculation study: oral PK without and with activated charcoal
# Assay type: in vivo, mouse
# stated.conditions: mouse, plasma, po, 5 mg/kg, mice, 5 mg/kg oral, without charcoal

compound	value.unit	AUC(0-t)
O=C(NC1CC1CCCCc1ccccc1)C1CCC(O)CC1 (stereo not shown) [Compound 8015-P2]	ng·h/mL	887

---

# assay.procedure: Liver microsome stability, mouse
# Assay type: in vitro ADME
# stated.conditions: liver microsomes, read-out: Liver microsomes t1/2
# Protocol: Routine in vitro pharmacokinetic (PK) profiling of 8015 and its enantiomers (8015-P1 and 8015-P2) was performed at WuXi Apptec Co., Ltd. (Shanghai, China) using standard methods as described ([Dang et al., 2020], [2021]). In vivo PK profiling was performed by Frontage Laboratories (Exton PA, USA). The vehicle used for intravenous and oral PK studies was 12% sulfobutylether-β-cyclodextrin (SBE-β-CD; CyDex Pharmaceutical Inc., Lenexa KS, USA) in sterile water.

compound	half-life (h)
O=C(NC1CC1CCCCc1ccccc1)C1CCC(O)CC1 (racemic)	3.22

---

# assay.procedure: In vivo plasma and tissue PK in mice (i.v. and p.o.)
# stated.conditions: mouse, plasma, po, p.o. 50 mg/kg, read-out: In vivo plasma PK (p.o.) t1/2 (converted)

compound	value.unit	half-life
O=C(NC1CC1CCCCc1ccccc1)C1CCC(O)CC1 (racemic) [Compound 8015]	h	2.2

---

# assay.procedure: Plasma protein binding, human
# Format: in vitro ADME
# stated.conditions: read-out: Plasma protein % bound (converted)

compound	fraction unbound
O=C(NC1CC1CCCCc1ccccc1)C1CCC(O)CC1 (racemic)	0.047

---

# assay.procedure: Liver microsome stability, human
# Format: in vitro ADME
# stated.conditions: liver microsomes, read-out: Liver microsomes t1/2

compound	half-life
O=C(NC1CC1CCCCc1ccccc1)C1CCC(O)CC1 (racemic)	2.32 h

---

# assay.procedure: Enterohepatic recirculation study: oral PK without and with activated charcoal
# Type: in vivo, mouse
# stated.conditions: mouse, plasma, po, 5 mg/kg, mice, 5 mg/kg oral, activated charcoal by gavage 1 hour after dosing
# Experimental: Enterohepatic recirculation (EHR) of 8015-P2 was tested by fasting mice overnight prior to administration of the compound (5 mg/kg) by oral gavage. 1 hour later, activated charcoal (2 g/kg) was administered by oral gavage to half of the mice; all mice were fed 2 hours after 8015-P2 dosing to induce gall bladder emptying. […] Areas under the concentration curves were calculated from the raw data; plasma half-times were estimated by linear regression of the second, slower elimination phase.

compound	value.unit	AUC(0-t)
O=C(NC1CC1CCCCc1ccccc1)C1CCC(O)CC1 (stereo not shown) [Compound 8015-P2]	µg·h/mL	0.739

---

# assay.procedure: Enterohepatic recirculation study: oral PK without and with activated charcoal
# Type: in vivo, mouse
# stated.conditions: mouse, plasma, po, 5 mg/kg, mice, 5 mg/kg oral, without charcoal; read-out: Plasma t1/2 (converted)
readout.label: half-life

compound	observed.value
O=C(NC1CC1CCCCc1ccccc1)C1CCC(O)CC1 (stereo not shown) [Compound 8015-P2]	1.88 h
